# TEST DETAILS: Microsomal stability (intrinsic clearance), mouse
# Assay type: in vitro ADME
# Set-up: dose or concentration left out as unconfirmed
# RUN CONDITIONS: mouse, liver microsomes, pH 7.4, mouse microsomes
QUANTITY: microsomal CLint (µL/min/mg)
Give bare numbers, in µL/min/mg.

So what's the measured microsomal CLint for this one? COc1cc2ncc3c(c2cc1-c1cn(C)nc1C)n(-c1c(F)cncc1OC)c(=O)n3C [Compound Y, reference compound]
61

----------
Can you tell me pIC50 for the items I'm about to list?
# MEASURED ON: human ATR/ATRIP (Homo sapiens)
# Construct: human ATR, full length, GenBank ID: NM_001184.3; Sf21 insect cells (p53)
# Sequence (Q13535 whole entry): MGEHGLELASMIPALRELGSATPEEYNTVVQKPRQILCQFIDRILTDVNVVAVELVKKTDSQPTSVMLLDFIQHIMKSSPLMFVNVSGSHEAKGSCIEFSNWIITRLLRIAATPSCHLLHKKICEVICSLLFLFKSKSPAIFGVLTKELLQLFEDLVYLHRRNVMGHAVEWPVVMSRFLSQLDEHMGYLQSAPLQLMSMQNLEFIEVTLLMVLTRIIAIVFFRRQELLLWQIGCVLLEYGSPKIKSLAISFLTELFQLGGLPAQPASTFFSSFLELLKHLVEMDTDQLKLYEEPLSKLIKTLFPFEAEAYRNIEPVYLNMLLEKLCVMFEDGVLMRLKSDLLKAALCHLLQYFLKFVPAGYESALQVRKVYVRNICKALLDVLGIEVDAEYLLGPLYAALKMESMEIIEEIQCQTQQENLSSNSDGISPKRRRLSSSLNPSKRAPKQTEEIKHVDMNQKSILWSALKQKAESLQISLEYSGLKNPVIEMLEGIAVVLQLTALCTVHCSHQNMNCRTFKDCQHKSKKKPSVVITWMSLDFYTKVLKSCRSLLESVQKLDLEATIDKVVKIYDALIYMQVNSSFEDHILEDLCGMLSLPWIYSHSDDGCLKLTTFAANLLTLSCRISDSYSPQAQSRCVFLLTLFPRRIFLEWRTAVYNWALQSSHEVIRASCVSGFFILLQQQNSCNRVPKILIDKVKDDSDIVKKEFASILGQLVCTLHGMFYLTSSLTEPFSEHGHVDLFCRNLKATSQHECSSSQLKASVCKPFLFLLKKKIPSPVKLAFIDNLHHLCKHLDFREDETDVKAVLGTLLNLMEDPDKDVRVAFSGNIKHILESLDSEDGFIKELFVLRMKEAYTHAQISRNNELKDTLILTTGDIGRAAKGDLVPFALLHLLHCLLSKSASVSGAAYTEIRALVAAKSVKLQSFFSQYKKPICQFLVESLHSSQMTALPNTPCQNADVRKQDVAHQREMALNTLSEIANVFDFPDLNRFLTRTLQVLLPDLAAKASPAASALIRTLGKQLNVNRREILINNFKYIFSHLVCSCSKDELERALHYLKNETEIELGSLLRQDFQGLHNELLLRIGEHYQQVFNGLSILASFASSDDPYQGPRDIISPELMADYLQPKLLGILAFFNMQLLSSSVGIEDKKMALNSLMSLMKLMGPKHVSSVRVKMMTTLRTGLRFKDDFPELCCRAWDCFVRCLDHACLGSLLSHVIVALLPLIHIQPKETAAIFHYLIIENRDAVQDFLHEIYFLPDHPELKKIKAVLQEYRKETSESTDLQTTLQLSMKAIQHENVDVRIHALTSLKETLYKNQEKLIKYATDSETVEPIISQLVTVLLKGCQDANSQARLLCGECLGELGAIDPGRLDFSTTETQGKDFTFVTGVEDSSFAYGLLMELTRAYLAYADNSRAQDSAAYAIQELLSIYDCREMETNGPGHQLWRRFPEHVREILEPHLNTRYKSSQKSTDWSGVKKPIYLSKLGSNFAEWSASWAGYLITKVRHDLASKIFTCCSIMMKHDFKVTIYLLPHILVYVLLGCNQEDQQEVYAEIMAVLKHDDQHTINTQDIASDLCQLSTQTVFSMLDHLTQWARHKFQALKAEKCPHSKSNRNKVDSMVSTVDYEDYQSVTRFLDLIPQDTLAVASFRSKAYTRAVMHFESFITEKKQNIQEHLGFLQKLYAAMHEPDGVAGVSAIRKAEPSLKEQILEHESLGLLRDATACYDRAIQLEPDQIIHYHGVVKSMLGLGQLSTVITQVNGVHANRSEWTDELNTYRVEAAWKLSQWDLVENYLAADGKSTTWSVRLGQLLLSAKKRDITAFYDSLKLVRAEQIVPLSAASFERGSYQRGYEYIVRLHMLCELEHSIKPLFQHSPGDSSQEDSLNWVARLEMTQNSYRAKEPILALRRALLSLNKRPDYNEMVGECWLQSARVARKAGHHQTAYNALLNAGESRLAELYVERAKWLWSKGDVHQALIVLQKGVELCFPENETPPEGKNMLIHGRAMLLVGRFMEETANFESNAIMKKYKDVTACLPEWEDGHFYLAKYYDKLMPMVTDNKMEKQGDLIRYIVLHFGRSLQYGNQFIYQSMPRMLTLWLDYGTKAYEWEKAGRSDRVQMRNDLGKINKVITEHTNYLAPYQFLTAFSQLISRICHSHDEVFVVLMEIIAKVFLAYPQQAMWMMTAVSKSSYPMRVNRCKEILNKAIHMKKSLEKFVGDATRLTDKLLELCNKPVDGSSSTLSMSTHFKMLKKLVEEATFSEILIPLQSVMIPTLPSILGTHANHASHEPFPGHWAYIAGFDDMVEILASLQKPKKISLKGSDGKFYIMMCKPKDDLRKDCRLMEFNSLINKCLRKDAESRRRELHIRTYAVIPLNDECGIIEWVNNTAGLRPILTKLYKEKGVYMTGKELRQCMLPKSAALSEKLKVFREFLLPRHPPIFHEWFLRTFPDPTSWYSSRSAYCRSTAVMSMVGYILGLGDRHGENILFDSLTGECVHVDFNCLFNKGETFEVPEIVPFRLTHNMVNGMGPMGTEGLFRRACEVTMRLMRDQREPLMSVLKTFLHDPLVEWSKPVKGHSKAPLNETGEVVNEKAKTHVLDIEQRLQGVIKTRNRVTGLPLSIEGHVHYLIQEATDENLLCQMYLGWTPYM
# Sequence (Q8WXE1 whole entry partner): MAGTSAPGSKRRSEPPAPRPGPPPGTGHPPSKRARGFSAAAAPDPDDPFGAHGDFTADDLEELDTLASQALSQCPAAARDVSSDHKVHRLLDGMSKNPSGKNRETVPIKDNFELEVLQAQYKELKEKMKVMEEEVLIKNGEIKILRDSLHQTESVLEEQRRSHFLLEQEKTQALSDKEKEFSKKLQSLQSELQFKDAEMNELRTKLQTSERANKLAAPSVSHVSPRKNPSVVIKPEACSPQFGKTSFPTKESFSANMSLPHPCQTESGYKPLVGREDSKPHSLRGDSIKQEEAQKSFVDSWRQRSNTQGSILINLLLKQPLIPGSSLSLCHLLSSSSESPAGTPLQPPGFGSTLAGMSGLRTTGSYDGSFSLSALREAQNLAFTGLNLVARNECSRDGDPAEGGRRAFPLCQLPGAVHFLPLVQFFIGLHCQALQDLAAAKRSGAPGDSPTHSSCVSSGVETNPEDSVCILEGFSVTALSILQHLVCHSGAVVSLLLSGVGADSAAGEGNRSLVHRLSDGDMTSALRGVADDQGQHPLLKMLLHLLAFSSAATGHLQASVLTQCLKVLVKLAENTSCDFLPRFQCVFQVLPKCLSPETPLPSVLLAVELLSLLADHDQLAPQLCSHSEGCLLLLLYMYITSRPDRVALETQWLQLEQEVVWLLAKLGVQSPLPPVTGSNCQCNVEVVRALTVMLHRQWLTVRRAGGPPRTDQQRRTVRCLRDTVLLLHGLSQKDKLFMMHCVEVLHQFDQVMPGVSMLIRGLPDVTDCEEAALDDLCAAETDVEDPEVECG
# TEST DETAILS: ATR/ATRIP kinase assay
Answers are plain numbers, as −log10 of the molar value.

[
  {
    "COMPOUND": "COc1cc2ncc3c(c2cc1-c1cn(C)nc1C)n(-c1c(F)cncc1OC)c(=O)n3C (single isomer, unassigned) [Compound 1]",
    "pIC50": 5.00
  }
]

Continue with the next compound.
Entry COc1cc2ncc3c(c2cc1-c1cn(C)nc1C)n(-c1c(F)cncc1OC)c(=O)n3C [Compound Y, reference compound] has what pIC50?
5.30

----------
# TEST DETAILS: Microsomal stability (intrinsic clearance), rat
# Type: in vitro ADME
# RUN CONDITIONS: liver microsomes
QUANTITY: microsomal CLint (µL/min/mg)
One number for each entry, in µL/min/mg.

Request the reported microsomal CLint associated with COc1cc2ncc3c(c2cc1-c1cn(C)nc1C)n(-c1c(F)cncc1OC)c(=O)n3C [Compound Y, reference compound]
19

----------
# MEASURED ON: Kv11.1 hERG cardiac ion channel (Homo sapiens, UniProt Q12809)
# Construct: expressed in transfected cells; host or cells: HEK293 (human embryonic kidney cells), stably transfected
# Sequence (Q12809 whole entry): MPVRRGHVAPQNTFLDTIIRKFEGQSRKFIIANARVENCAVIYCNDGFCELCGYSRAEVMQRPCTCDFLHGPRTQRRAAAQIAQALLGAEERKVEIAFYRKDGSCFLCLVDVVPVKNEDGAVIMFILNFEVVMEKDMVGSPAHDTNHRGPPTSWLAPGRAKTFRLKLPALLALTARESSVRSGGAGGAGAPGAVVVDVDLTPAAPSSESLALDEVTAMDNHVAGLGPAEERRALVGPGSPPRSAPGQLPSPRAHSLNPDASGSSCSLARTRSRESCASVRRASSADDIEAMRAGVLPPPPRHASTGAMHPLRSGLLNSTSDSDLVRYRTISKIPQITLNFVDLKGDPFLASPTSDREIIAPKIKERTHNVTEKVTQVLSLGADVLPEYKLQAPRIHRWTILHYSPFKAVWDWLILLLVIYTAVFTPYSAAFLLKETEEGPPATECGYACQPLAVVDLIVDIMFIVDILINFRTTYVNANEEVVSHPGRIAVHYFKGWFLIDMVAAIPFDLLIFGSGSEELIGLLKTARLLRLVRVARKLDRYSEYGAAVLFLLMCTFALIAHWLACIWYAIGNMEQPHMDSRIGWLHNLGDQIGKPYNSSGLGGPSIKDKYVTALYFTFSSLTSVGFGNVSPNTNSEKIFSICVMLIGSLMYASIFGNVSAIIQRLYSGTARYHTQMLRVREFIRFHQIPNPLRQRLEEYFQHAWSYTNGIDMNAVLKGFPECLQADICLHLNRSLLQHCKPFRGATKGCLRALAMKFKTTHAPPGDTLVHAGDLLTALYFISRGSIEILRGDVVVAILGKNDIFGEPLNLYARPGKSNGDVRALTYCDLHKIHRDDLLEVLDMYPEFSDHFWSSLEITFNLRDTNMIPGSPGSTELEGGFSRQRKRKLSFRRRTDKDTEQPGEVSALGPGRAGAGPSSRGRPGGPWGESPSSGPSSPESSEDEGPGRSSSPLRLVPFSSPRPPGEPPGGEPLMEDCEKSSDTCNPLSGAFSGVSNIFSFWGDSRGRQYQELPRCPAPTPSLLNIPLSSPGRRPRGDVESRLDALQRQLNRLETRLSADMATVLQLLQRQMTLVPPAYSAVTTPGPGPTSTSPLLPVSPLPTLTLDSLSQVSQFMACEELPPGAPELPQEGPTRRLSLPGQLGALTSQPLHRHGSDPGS
# TEST DETAILS: Kv11.1 (hERG) ion channel activity (patch clamp assay)
# Assay type: cell-based
# RUN CONDITIONS: HEK293 transfected with hERG
pKi: −log10 of the molar value.
QUANTITY: pKi

Name the recorded pKi for COc1cc2ncc3c(c2cc1-c1cn(C)nc1C)n(-c1c(F)cncc1OC)c(=O)n3C (single isomer, unassigned) .
< 4.52

----------
# Test system: pCHK2 (Cellular mechanistic ATM, HCT-116)
# TEST DETAILS: Cellular pCHK2 assay (bleomycin-induced phospho-Thr68 CHK2)
# Format: cell-based, human
# RUN CONDITIONS: Homo sapiens, HCT-116, HCT-116, 10 μM bleomycin
QUANTITY: pIC50
Give bare numbers, as −log10 of the molar value.

Returns the measured pIC50 for the input compound. Input: COc1cc2ncc3c(c2cc1-c1cn(C)nc1C)n(-c1c(F)cncc1OC)c(=O)n3C [Compound Y, reference compound]
7.07
